Every entry's value here was drawn from the supplement of paper PMC13380429.

test system: U2OS; assay: cell viability relative to DMSO; higher = less toxic; conditions: 72 h; 1 nM
So I've got a bunch of molecules here, and I need their cell viability values.
One number for each entry, in %.

Hi team, please reply with cell viability for each item in this list.
1. C[C@H]1C[C@H]2[C@@H]3CCC4=CC(=O)C=C[C@]4(C)[C@H]3C(=O)C[C@]2(C)[C@@]1(O)C(=O)CO [Betapar (Meprednisone)]
2. O=C1c2ccccc2CCC1CNCCc1ccc(O)cc1 (stereo not given) [BE-2254]
3. Fc1ccc(-c2nc(-c3c(F)cccc3F)[nH]c2-c2ccncc2)cc1 [TA-01]
4. CCc1cccc(CC)c1NC1=NCCN1 [ST-91]

Result:
[97.6, 95.8, 108, 103]

Ask: Which cell viability reading was recorded for the molecule CN(C)CCN1C(=O)c2cccc3cc(NC(N)=O)cc(c23)C1=O [unbs-5162] ?
Result: 104
